Test system: MKN-45
Experiment: Cytotoxicity against c-Met-dependent human MKN45 cells assessed as growth inhibition after 72 hrs by MTT assay
Settings: MKN-45, 72 h
observed_property: IC50

# annotated cases, reported IC50 shown
# mol_smiles, IC50
records = [
    ("COc1cc2c(Oc3ccc(NC(=O)c4nn(-c5cc(C(F)(F)F)ccc5Cl)c5ccccc5c4=O)cc3F)ccnc2cc1OCCCN1CCCC1", "170 nM"),
    ("COc1cc2c(Oc3ccc(NC(=O)c4nn(-c5ccccc5C(F)(F)F)c5ccccc5c4=O)cc3F)ccnc2cc1OCCCN1CCOCC1", "20 nM"),
    ("COc1cc2c(Oc3ccc(NC(=O)c4nn(-c5c(Cl)cccc5Cl)c5ccccc5c4=O)cc3F)ccnc2cc1OCCCN1CCC(C)CC1", "360 nM"),
    ("COc1cc2c(Oc3ccc(NC(=O)c4nn(-c5ccc(C)cc5C)c5ccccc5c4=O)cc3F)ccnc2cc1OCCCN1CCCCC1", "1850 nM"),
]

Please turn your attention to the following entry.
Req: Quickly give me recorded IC50 for "COc1cc2c(Oc3ccc(NC(=O)c4nn(-c5ccccc5Br)c5ccccc5c4=O)cc3F)ccnc2cc1OCCCN1CCC(C)CC1"
Resp: 280 nM

----------
Biological target: Hepatocyte growth factor receptor (Homo sapiens)
Sequence (P08581 whole entry): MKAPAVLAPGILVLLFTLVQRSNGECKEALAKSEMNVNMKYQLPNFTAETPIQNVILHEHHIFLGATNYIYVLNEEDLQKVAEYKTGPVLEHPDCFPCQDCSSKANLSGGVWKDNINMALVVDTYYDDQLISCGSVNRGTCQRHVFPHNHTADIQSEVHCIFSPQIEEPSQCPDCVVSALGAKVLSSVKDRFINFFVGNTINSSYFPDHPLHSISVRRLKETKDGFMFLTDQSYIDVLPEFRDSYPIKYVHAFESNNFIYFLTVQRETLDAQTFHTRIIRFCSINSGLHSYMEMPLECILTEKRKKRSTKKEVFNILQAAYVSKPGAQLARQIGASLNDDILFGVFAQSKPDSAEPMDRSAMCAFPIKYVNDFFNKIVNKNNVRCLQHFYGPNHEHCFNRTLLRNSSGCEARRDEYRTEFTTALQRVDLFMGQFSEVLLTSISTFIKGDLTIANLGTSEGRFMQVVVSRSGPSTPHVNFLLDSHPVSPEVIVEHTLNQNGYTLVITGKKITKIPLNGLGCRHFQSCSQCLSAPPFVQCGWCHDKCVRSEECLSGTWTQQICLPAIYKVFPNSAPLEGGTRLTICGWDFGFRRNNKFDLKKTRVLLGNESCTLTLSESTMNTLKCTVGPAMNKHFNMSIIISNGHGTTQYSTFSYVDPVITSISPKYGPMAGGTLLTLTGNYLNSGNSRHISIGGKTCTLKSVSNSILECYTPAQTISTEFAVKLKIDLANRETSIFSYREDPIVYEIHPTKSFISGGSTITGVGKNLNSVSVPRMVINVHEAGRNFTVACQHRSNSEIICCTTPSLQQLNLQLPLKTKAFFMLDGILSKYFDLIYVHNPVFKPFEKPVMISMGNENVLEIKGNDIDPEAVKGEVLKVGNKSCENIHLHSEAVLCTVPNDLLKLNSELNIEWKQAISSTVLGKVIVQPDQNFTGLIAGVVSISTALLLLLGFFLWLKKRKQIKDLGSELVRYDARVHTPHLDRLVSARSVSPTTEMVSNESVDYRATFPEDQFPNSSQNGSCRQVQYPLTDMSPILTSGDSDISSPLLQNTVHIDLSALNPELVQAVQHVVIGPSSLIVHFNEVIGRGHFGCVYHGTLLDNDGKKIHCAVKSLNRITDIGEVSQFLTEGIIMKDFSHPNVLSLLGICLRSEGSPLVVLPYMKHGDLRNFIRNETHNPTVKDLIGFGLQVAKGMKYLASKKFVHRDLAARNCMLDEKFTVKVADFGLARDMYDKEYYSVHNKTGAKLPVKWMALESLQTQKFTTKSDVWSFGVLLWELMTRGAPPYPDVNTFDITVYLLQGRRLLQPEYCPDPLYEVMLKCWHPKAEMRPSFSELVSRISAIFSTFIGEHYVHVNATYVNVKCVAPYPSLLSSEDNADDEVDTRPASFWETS
Assay: Inhibition of c-Met (unknown origin) using poly (Glu, Tyr) 4:1 as substrate after 30 mins by HTRF assay
observed_property: IC50 (pM)
Expressed in pM, but write only the number.

Req: Fill: IC50 (Hepatocyte growth factor receptor (Homo sapiens)) for this molecule "COc1cc2c(Oc3ccc(NC(=O)c4nn(-c5ccccc5C(F)(F)F)c5ccccc5c4=O)cc3F)ccnc2cc1OCCCN1CCCC1"
Resp: 590

----------
Test system: A549
Experiment: Cytotoxicity against c-Met-dependent human A549 cells assessed as growth inhibition after 72 hrs by MTT assay
Conditions: A549, 72 h
pIC50: −log10 of the molar value.
Quick rule: pIC50 of at least 6 means T, below that means F.

Solved cases below.
# mol_smiles, assay_target, assigned_label
rows = [
    ("COc1cc2c(Oc3ccc(NC(=O)c4nn(-c5ccccc5Cl)c5ccccc5c4=O)cc3F)ccnc2cc1OCCCN1CCOCC1", "A549", "T"),
    ("COc1cc2c(Oc3ccc(NC(=O)c4nn(-c5ccccc5F)c5cc(F)ccc5c4=O)cc3F)ccnc2cc1OCCCN1CCOCC1", "A549", "F"),
]

Req: Is pIC50 at least 6? Consider "COc1cc2c(Oc3ccc(NC(=O)c4nn(-c5ccccc5Br)c5ccccc5c4=O)cc3F)ccnc2cc1OCCCN1CCC(C)CC1"
Resp: T

Req: Is pIC50 at least 6? Consider "COc1cc2c(Oc3ccc(NC(=O)c4nn(-c5ccc(Cl)cc5)c5ccccc5c4=O)cc3F)ccnc2cc1OCCCN1CCCCC1"
Resp: T

Req: Is pIC50 at least 6? Consider "COc1cc2c(Oc3ccc(NC(=O)c4nn(-c5ccc(Br)cc5)c5ccccc5c4=O)cc3F)ccnc2cc1OCCCN1CCCCC1"
Resp: T

Req: Is pIC50 at least 6? Consider "COc1cc2c(Oc3ccc(NC(=O)c4nn(-c5cc(C(F)(F)F)ccc5Cl)c5ccccc5c4=O)cc3F)ccnc2cc1OCCCN1CCCC1"
Resp: T

Req: Is pIC50 at least 6? Consider "COc1cc2c(Oc3ccc(NC(=O)c4nn(-c5ccccc5C(F)(F)F)c5ccccc5c4=O)cc3F)ccnc2cc1OCCCN1CCOCC1"
Resp: T

----------
Molecular target: Epidermal growth factor receptor (Homo sapiens, UniProt P00533)
Sequence (P00533 whole entry): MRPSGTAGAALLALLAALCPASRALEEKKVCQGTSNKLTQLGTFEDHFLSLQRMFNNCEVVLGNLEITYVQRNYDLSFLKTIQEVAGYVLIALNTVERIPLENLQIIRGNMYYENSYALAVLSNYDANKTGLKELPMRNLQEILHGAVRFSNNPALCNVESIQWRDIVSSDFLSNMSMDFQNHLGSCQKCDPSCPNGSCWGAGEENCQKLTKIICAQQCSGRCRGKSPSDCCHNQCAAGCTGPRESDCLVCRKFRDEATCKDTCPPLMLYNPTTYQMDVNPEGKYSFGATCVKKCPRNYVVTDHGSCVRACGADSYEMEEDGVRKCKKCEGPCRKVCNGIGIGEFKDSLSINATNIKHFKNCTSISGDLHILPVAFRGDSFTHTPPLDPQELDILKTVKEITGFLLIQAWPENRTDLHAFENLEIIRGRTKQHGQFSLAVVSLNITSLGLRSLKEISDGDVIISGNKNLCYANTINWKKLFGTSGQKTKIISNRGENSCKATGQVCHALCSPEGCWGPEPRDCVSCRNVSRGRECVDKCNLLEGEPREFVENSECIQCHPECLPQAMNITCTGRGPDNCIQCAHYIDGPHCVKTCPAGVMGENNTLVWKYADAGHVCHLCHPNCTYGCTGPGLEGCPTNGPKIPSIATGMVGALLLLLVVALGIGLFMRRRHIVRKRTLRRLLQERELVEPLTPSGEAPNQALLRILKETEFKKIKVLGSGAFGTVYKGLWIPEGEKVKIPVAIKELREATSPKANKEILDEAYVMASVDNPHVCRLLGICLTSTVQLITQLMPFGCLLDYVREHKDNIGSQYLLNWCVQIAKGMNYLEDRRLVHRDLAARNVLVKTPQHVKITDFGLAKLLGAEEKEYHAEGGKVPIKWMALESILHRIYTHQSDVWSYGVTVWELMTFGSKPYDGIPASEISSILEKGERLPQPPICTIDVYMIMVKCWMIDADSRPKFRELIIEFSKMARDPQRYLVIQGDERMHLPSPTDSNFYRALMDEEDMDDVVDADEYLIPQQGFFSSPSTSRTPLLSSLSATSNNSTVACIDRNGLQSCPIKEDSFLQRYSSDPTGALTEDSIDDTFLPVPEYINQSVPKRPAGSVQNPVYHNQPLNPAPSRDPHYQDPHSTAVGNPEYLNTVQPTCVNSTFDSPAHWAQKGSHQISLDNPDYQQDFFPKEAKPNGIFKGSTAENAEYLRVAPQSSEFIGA
observed_property: IC50

Req: Fill: IC50 (Epidermal growth factor receptor (Homo sapiens, UniProt P00533)) for this compound "COc1cc2c(Oc3ccc(NC(=O)c4nn(-c5ccccc5C(F)(F)F)c5ccccc5c4=O)cc3F)ccnc2cc1OCCCN1CCCC1"
Resp: > 10 µM

----------
System: HT-29
Test: Cytotoxicity against c-Met-dependent human HT-29 cells assessed as growth inhibition after 72 hrs by MTT assay
Settings: HT-29, 72 h
Measured log10(IC50) values are reported for all entries that follow.
Values reflect log10 of reported IC50 (µM).

# annotated cases, reported log10(IC50) shown
# mol_smiles, log10(IC50)
rows = [
    ("COc1cc2c(Oc3ccc(NC(=O)c4nn(-c5ccccc5C(F)(F)F)c5ccccc5c4=O)cc3F)ccnc2cc1OCCCN1CCCCC1", -0.25),
    ("COc1cc2c(Oc3ccc(NC(=O)c4nn(-c5cc(C(F)(F)F)ccc5Cl)c5ccccc5c4=O)cc3F)ccnc2cc1OCCCN1CCCC1", 0.05),
    ("COc1cc2c(Oc3ccc(NC(=O)c4nn(-c5ccccc5Cl)c5cc(F)ccc5c4=O)cc3F)ccnc2cc1OCCCN1CCC(C)CC1", 0.14),
    ("COc1cc2c(Oc3ccc(NC(=O)c4nn(-c5c(Cl)cccc5Cl)c5ccccc5c4=O)cc3F)ccnc2cc1OCCCN1CCCCC1", 0.06),
    ("COc1cc2c(Oc3ccc(NC(=O)c4nn(-c5ccccc5)c5ccccc5c4=O)cc3F)ccnc2cc1OCCCN1CCOCC1", 0.07),
]

Req: Quickly give me recorded log10(IC50) for "COc1cc2c(Oc3ccc(NC(=O)c4nn(-c5ccccc5F)c5cc(F)ccc5c4=O)cc3F)ccnc2cc1OCCCN1CCCCC1"
Resp: 0.71

Req: Quickly give me recorded log10(IC50) for "COc1cc2c(Oc3ccc(NC(=O)c4nn(-c5ccc(C)cc5C)c5ccccc5c4=O)cc3F)ccnc2cc1OCCCN1CCCCC1"
Resp: 0.55

Req: Quickly give me recorded log10(IC50) for "COc1cc2c(Oc3ccc(NC(=O)c4nn(-c5ccccc5F)c5cc(F)ccc5c4=O)cc3F)ccnc2cc1OCCCN1CCOCC1"
Resp: 0.47

Req: Quickly give me recorded log10(IC50) for "COc1cc2c(Oc3ccc(NC(=O)c4nn(-c5c(Cl)cccc5Cl)c5ccccc5c4=O)cc3F)ccnc2cc1OCCCN1CCCC1"
Resp: 0.02

Req: Quickly give me recorded log10(IC50) for "COc1cc2c(Oc3ccc(NC(=O)c4nn(-c5ccccc5Cl)c5ccccc5c4=O)cc3F)ccnc2cc1OCCCN1CCCCC1"
Resp: -0.59

Req: Quickly give me recorded log10(IC50) for "COc1cc2c(Oc3ccc(NC(=O)c4nn(-c5ccccc5C(F)(F)F)c5ccccc5c4=O)cc3F)ccnc2cc1OCCCN1CCCC1"
Resp: -0.96

Req: Quickly give me recorded log10(IC50) for "COc1cc2c(Oc3ccc(NC(=O)c4nn(-c5ccccc5Cl)c5ccccc5c4=O)cc3F)ccnc2cc1OCCCN1CCOCC1"
Resp: -0.62

----------
Tested on: A549
Test: Cytotoxicity against c-Met-dependent human A549 cells assessed as growth inhibition after 72 hrs by MTT assay
Conditions: A549, 72 h
The label is MET for IC50 below 0.3 µM and NOT MET for IC50 equal to or exceeding 0.3 µM.

Solved cases below.
# mol_smiles, assigned_label
measured = [
    ("COc1cc2c(Oc3ccc(NC(=O)c4nn(-c5ccc(F)c(F)c5)c5ccccc5c4=O)cc3F)ccnc2cc1OCCCN1CCCC1", "MET"),
    ("COc1cc2c(Oc3ccc(NC(=O)c4nn(-c5c(Cl)cccc5Cl)c5ccccc5c4=O)cc3F)ccnc2cc1OCCCN1CCC(C)CC1", "NOT MET"),
    ("COc1cc2c(Oc3ccc(NC(=O)c4nn(-c5ccccc5OC(F)(F)F)c5ccccc5c4=O)cc3F)ccnc2cc1OCCCN1CCOCC1", "NOT MET"),
    ("COc1cc2c(Oc3ccc(NC(=O)c4nn(-c5ccccc5Cl)c5ccccc5c4=O)cc3F)ccnc2cc1OCCCN1CCCCC1", "MET"),
    ("COc1cc2c(Oc3ccc(NC(=O)c4nn(-c5ccc(F)cc5)c5ccccc5c4=O)cc3F)ccnc2cc1OCCCN1CCC(C)CC1", "MET"),
]

Req: Regarding "COc1cc2c(Oc3ccc(NC(=O)c4nn(-c5c(Cl)cccc5Cl)c5ccccc5c4=O)cc3F)ccnc2cc1OCCCN1CCCCC1" , kindly confirm whether its IC50 is beneath 0.3 µM.
Resp: NOT MET

Req: Regarding "COc1cc2c(Oc3ccc(NC(=O)c4nn(-c5cc(C)ccc5C)c5ccccc5c4=O)cc3F)ccnc2cc1OCCCN1CCOCC1" , kindly confirm whether its IC50 is beneath 0.3 µM.
Resp: NOT MET

Req: Regarding "COc1cc2c(Oc3ccc(NC(=O)c4nn(-c5ccc(C)cc5C)c5ccccc5c4=O)cc3F)ccnc2cc1OCCCN1CCCCC1" , kindly confirm whether its IC50 is beneath 0.3 µM.
Resp: NOT MET

Req: Regarding "COc1cc2c(Oc3ccc(NC(=O)c4nn(-c5cc(C)ccc5C)c5ccccc5c4=O)cc3F)ccnc2cc1OCCCN1CCCC1" , kindly confirm whether its IC50 is beneath 0.3 µM.
Resp: NOT MET

Req: Regarding "COc1cc2c(Oc3ccc(NC(=O)c4nn(-c5ccccc5C(F)(F)F)c5ccccc5c4=O)cc3F)ccnc2cc1OCCCN1CCCC1" , kindly confirm whether its IC50 is beneath 0.3 µM.
Resp: MET

Req: Regarding "COc1cc2c(Oc3ccc(NC(=O)c4nn(-c5cccc(C(F)(F)F)c5)c5ccccc5c4=O)cc3F)ccnc2cc1OCCCN1CCCCC1" , kindly confirm whether its IC50 is beneath 0.3 µM.
Resp: NOT MET

Req: Regarding "COc1cc2c(Oc3ccc(NC(=O)c4nn(-c5ccccc5F)c5ccccc5c4=O)cc3F)ccnc2cc1OCCCN1CCC(C)CC1" , kindly confirm whether its IC50 is beneath 0.3 µM.
Resp: NOT MET

Req: Regarding "COc1cc2c(Oc3ccc(NC(=O)c4nn(-c5c(Cl)cccc5Cl)c5ccccc5c4=O)cc3F)ccnc2cc1OCCCN1CCCC1" , kindly confirm whether its IC50 is beneath 0.3 µM.
Resp: NOT MET

Req: Regarding "COc1cc2c(Oc3ccc(NC(=O)c4nn(-c5ccc(Cl)c(C(F)(F)F)c5)c5ccccc5c4=O)cc3F)ccnc2cc1OCCCN1CCC(C)CC1" , kindly confirm whether its IC50 is beneath 0.3 µM.
Resp: MET

Req: Regarding "COc1cc2c(Oc3ccc(NC(=O)c4nn(-c5ccc(C)cc5)c5ccccc5c4=O)cc3F)ccnc2cc1OCCCN1CCOCC1" , kindly confirm whether its IC50 is beneath 0.3 µM.
Resp: NOT MET
